Target: human mAChR M4 (Homo sapiens)
Construct: expressed in transfected cells
Sequence (P08173 1-479): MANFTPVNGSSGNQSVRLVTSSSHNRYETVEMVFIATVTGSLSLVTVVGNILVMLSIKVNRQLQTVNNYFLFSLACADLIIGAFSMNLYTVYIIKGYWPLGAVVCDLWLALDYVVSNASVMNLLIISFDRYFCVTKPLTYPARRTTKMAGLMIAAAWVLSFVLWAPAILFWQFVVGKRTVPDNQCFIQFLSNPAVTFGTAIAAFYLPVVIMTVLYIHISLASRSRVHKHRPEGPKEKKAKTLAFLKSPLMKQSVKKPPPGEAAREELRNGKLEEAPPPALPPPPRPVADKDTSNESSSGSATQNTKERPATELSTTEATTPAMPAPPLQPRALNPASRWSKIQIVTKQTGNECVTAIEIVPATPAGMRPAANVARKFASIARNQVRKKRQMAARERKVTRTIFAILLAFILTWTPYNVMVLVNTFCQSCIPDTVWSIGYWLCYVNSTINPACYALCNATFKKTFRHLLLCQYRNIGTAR
Test: mAChR M4 cell-based functional assay (calcium mobilization, CHO-K1 hM4-Gqi5 cells)
Conditions: CHO-K1, % ACh maximum at 30 μM; human M4
assay.endpoint: Emax at 30 µM (%)
Numbers only, in %.

> print(dat)
                                   molecule  assay.endpoint  assay.value
1  Cc1cc(C(=O)N2CC(C(F)F)C2)nnc1N1CCc2ncc(Nc3ccnn3C)cc2C1   Emax at 30 µM           90
2  Cc1cc(C(=O)N2CC(F)(F)C2)nnc1N1CCc2ncc(N3CCO[C@H](C)C3)cc2C1   Emax at 30 µM          101
3  Cc1c(C(=O)NCc2ccncc2)nnc(N2CCc3ncccc3C2)c1C   Emax at 30 µM           84
4  Cc1cc(C(=O)NCc2ccncc2)cnc1N1CCc2ncc(C(F)(F)F)cc2C1   Emax at 30 µM          100
5  Cc1cc(C(=O)N2CC(F)(F)C2)nnc1N1CCc2ncc(Nc3ccnn3C)cc2C1   Emax at 30 µM           73
6      Cc1cc(C#N)nnc1N1CCc2ncc(C3CCC3)cc2C1   Emax at 30 µM           91

Give me Emax at 30 µM for each of these molecules, listed below.
1. Cc1cc(C(=O)NCc2ccncc2)cnc1N1CCc2ncc(-c3cccnc3F)cc2C1
2. Cc1cc(C(=O)NC2(C#N)CC2)nnc1N1CCc2ncc(C(F)(F)F)cc2C1

A)
1: 87; 2: 109
